Molecular target: KATP channels (Homo sapiens, UniProt O60706+Q14654)
Construct: TE671 human medulloblastoma cells were obtained from ATCC; host or cells: TE671 human medulloblastoma cells
Sequence (O60706 1-1549 isoform O60706-2): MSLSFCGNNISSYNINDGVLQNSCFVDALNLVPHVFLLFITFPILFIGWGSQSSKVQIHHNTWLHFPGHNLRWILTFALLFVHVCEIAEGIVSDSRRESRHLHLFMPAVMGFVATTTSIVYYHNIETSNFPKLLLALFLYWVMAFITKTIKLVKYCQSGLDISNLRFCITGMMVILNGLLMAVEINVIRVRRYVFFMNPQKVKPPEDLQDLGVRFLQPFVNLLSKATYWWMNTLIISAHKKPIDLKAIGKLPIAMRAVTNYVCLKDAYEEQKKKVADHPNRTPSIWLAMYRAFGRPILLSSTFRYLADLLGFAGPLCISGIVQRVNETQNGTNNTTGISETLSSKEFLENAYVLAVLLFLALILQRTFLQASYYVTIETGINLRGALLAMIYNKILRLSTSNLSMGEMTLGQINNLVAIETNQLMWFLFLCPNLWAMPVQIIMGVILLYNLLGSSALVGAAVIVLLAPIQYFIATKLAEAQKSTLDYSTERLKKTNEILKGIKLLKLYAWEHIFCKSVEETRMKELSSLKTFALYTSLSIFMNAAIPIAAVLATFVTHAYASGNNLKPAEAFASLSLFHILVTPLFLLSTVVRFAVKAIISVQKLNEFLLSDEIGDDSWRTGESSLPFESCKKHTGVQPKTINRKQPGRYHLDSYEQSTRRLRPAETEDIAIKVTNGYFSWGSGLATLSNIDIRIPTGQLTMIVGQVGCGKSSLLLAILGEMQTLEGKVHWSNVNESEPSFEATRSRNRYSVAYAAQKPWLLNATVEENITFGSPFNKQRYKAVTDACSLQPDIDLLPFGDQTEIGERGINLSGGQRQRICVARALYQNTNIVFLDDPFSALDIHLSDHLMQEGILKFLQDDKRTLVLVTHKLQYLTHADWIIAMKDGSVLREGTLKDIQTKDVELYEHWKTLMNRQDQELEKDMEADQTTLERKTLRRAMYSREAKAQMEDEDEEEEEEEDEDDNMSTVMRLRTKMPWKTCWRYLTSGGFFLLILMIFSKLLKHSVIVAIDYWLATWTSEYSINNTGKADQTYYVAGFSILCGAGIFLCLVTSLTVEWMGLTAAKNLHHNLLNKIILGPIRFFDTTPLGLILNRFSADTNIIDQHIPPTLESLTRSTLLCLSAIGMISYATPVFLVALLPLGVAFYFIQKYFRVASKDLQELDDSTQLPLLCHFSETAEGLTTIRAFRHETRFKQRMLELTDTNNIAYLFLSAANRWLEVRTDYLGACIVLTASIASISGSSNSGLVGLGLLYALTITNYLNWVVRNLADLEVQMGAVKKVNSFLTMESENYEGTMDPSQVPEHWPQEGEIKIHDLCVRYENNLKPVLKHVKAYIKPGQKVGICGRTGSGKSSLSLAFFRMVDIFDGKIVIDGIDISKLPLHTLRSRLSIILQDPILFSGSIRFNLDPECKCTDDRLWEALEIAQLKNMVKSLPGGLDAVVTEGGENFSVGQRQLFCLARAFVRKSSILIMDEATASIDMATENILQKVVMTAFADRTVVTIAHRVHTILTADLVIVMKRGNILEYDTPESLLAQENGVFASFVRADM
Sequence (Q14654 whole entry): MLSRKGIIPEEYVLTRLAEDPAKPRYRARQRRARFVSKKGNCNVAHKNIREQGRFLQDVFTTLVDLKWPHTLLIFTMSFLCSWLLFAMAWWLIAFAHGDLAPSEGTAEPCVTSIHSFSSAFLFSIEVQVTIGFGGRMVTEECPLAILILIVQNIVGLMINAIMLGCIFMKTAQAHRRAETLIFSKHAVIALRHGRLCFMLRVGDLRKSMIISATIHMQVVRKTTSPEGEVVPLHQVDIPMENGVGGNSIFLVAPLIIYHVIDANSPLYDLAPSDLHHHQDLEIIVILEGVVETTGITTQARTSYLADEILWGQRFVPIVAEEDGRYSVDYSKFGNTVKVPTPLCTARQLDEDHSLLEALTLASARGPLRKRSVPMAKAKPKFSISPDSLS
Experiment: Potassium Channel Assay (FLIPR membrane potential, TE671 cells)
Assay type: cell-based
Conditions: TE671 human medulloblastoma cells, Membrane Potential Assay Dye, room temperature, hyperpolarization from KATP channel opening
Measured Metric: EC50 (µM)

Compound	EC50, µM
CC1(C)Oc2ccc(C#N)cc2[C@@H](n2ccnc2-c2ccc(Cl)cc2)[C@@H]1O (racemic)	5.7

(P) CC1(C)Oc2ccc(C#N)cc2[C@@H](S(=O)(=O)c2nc3cc(Cl)c(F)cc3[nH]2)[C@@H]1O
(Q) CC1(C)Oc2ccncc2[C@@H](n2cncc2-c2ccc(Cl)cc2)[C@@H]1O (racemic)
(R) CC1(C)Oc2ccc(C#N)cc2[C@@H](n2c(=O)ccn2-c2ccc(Cl)cc2)[C@@H]1O (racemic)
# desc sort on EC50 across 3 compounds Please express your ranking as an ordered list of the labels.
P, Q, R
(P: 20.2 µM, Q: 13.8 µM, R: 5.93 µM)
